Quick reference for ED50 among some compounds
test system: gastric mucosa; experiment: Preventing the gastric ulcer induced by ethanol-hydrochloric acid (gastric cytoprotection); type: in vivo, SD-strain rats; settings: Rattus norvegicus, po, rats; 30 minutes before 0.2N hydrochloric acid-50% aqueous ethanol; read-out: ED50 effective for 50% inhibition to the formation of necrotic lesions
endpoint-name: ED50 (mg/kg)

compound	unit	reported-measurement
Cc1cnc(CSc2cc3ccccc3[nH]2)cc1N1CCCCC1	mg/kg	11.5
Cc1cnc(CSc2cc3cc(F)ccc3[nH]2)cc1N1CCCCC1	mg/kg	12.7
CN(C)c1ccnc(CSc2cc3ccccc3[nH]2)c1	mg/kg	9.17
COc1ccc2nc([S+]([O-])Cc3ncc(C)c(OC)c3C)[nH]c2c1 (stereo not drawn) [Omeprazole, reference compound]	mg/kg	34.1
c1ccc2[nH]c(SCc3cc(N4CCCCC4)ccn3)cc2c1	mg/kg	8.13
COc1ccc2[nH]c(SCc3cc(N4CCCCC4)c(C)cn3)cc2c1	mg/kg	14.6
Cc1cnc(CSc2cc3cc(C(F)(F)F)ccc3[nH]2)cc1N1CCCCC1	mg/kg	9.77
Cc1cnc(CSc2c[nH]c3ccccc23)cc1N1CCCCC1	mg/kg	2.84
Cc1ccc2[nH]c(SCc3cc(N4CCCCC4)c(C)cn3)cc2c1	mg/kg	8.59

----------
tested on: rabbit gastric glands; assay: Inhibitory effects on aminopyrine uptake into gastric glands; assay type: cell-based; settings: Oryctolagus cuniculus, 0.5 h; 10^-4 M test compound; 37° C., 30 minutes; untreated control = 100%
Quick reference for activity at 100 µM among some compounds

compound	activity at 100 µM
Cc1c(N2CCCCC2)ccnc1CSc1cc2ccccc2[nH]1 [Example 10]	4%
Cc1cnc(CSc2cc3ccccc3n2C)cc1N1CCCCC1 [Example 4]	7%
CN(C)c1ccnc(CSc2c[nH]c3ccccc23)c1 [Example 2]	24%
Cc1cnc(CSc2cc3ccccc3[nH]2)cc1N1CCCC1 [Example 12]	10%
CN(C)c1ccnc(CSc2cc3ccccc3[nH]2)c1 [Example 13]	3%
